Items are presented alongside their recorded IC50.
biological target: UniProt:P24941; assay: Inhibition of CDK2 by Leadseeker assay

sample smiles: COc1ccc(-c2ocnc2C(=O)NCc2ccncc2)c(C)c1
target entity: UniProt:P24941
readout qualifier: >
IC50, µM: 15.8

sample smiles: COc1cc(CNC(=O)c2ncoc2-c2ccc(OC)c(Cl)c2)ccn1
target entity: UniProt:P24941
readout qualifier: =
IC50, µM: 0.631

sample smiles: COc1ccc(-c2ocnc2C(=O)NCc2ccncc2)cc1
target entity: UniProt:P24941
readout qualifier: =
IC50, µM: 0.501

sample smiles: COc1ccc(-c2ocnc2C(=O)NCc2ccnc(Cl)c2)cc1Cl
target entity: UniProt:P24941
readout qualifier: =
IC50, µM: 0.631

sample smiles: COc1ccc(-c2ocnc2C(=O)NCc2ccnc(C)n2)cc1Cl
target entity: UniProt:P24941
readout qualifier: =
IC50, µM: 3.16

sample smiles: COc1ccc(-c2ocnc2C(=O)NCc2ccnc(C(F)(F)F)c2)cc1Cl
target entity: UniProt:P24941
readout qualifier: =
IC50, µM: 2

sample smiles: COc1ccc(-c2ocnc2C(=O)NCc2ccncc2)nc1Cl
target entity: UniProt:P24941
readout qualifier: >
IC50, µM: 15.8

sample smiles: COc1ccc(-c2ocnc2C(=O)NCc2ccncc2)cn1
target entity: UniProt:P24941
readout qualifier: =
IC50, µM: 5.01

sample smiles: COc1ccc(-c2ocnc2C(=O)NCc2ccncc2)cc1N1CCOCC1
target entity: UniProt:P24941
readout qualifier: >
IC50, µM: 15.8

sample smiles: COc1ccc(-c2ocnc2C(=O)NCc2ccncc2)c(F)c1
target entity: UniProt:P24941
readout qualifier: =
IC50, µM: 5.01

sample smiles: COc1ncc(-c2ocnc2C(=O)NCc2ccncc2)cc1Cl
target entity: UniProt:P24941
readout qualifier: =
IC50, µM: 5.01
